System: NKL (IL-2 2.5 ng/mL)
METHOD: relative IC50 (inflection point of fitted viability curve, relative to fitted max inhibition); higher = less sensitive
CONDITION SUMMARY: 72 h
Each entry below lists one item and its recorded relative IC50 value.
// units = nM; emit number, no label

Worked set:
>  <COMPOUND>
Cc1cc(Nc2cc(CN3CCOCC3)c3nc(C)c(Cc4ccc(Cl)cc4F)n3n2)n[nH]1

>  <TEST RESULT>
75

$$$$
>  <COMPOUND>
COc1cc(Nc2ncc(F)c(Nc3ccc4c(n3)NC(=O)C(C)(C)O4)n2)cc(OC)c1OC

>  <TEST RESULT>
992

$$$$
>  <COMPOUND>
O=C(O)c1ccc(O)c2ncccc12

>  <TEST RESULT>
29100

$$$$
>  <COMPOUND>
Cn1cnc2c(F)c(Nc3ccc(Br)cc3Cl)c(C(=O)NOCCO)cc21

>  <TEST RESULT>
436

$$$$
>  <COMPOUND>
CO[C@H]1C[C@@H]2CC[C@@H](C)[C@@](O)(O2)C(=O)C(=O)N2CCCC[C@H]2C(=O)O[C@H]([C@H](C)C[C@@H]2CC[C@@H](OC(=O)C(C)(CO)CO)[C@H](OC)C2)CC(=O)[C@H](C)/C=C(\C)[C@@H](O)[C@@H](OC)C(=O)[C@H](C)C[C@H](C)/C=C/C=C/C=C/1C

>  <TEST RESULT>
0.09

$$$$
>  <COMPOUND>
O=C1NC(=O)/C(=C/c2ccc3nccc(-c4ccncc4)c3c2)S1

>  <TEST RESULT>
644

$$$$

Tell me its relative IC50 given CCS(=O)(=O)N1CC(CC#N)(n2cc(-c3ncnc4[nH]ccc34)cn2)C1 as the entry.
12

Tell me its relative IC50 given O=C(/C=C\n1cnc(-c2cc(C(F)(F)F)cc(C(F)(F)F)c2)n1)NNc1cnccn1 [Selinexor] as the entry.
106

Tell me its relative IC50 given Cc1sc2c(c1C)C(c1ccc(Cl)cc1)=N[C@@H](CC(=O)Nc1ccc(O)cc1)c1nnc(C)n1-2 as the entry.
75.2

* * *

Each entry below lists one item and its recorded percent inhibition of viability value.
Test system: SNK-6 (IL-2 2.5 ng/mL)
METHOD: percent inhibition of viability; higher = more inhibition
CONDITION SUMMARY: 72 h; 10 nM
Give me the value, and tack the unit on after it.

Worked set:
>  <COMPOUND>
Cc1[nH]c2ccccc2c1CCNCc1ccc(/C=C/C(=O)NO)cc1 [Panobinostat] (max concentration tested 1000 nM)

>  <percent inhibition of viability>
31.4%

$$$$
>  <COMPOUND>
COC(=O)C[C@](O)(CCCC(C)(C)O)C(=O)O[C@@H]1C(OC)=C[C@]23CCCN2CCc2cc4c(cc2[C@H]13)OCO4 [Omacetaxine] (max concentration tested 10000 nM)

>  <percent inhibition of viability>
72.3%

$$$$
>  <COMPOUND>
C=CC(=O)Nc1cc2c(Nc3ccc(F)c(Cl)c3)ncnc2cc1OCCCN1CCOCC1 [Canertinib] (max concentration tested 10000 nM)

>  <percent inhibition of viability>
-20.2%

$$$$
>  <COMPOUND>
FC(F)(F)c1ccc(/C=C/c2nc(COc3ccc(CCCCn4ccnn4)cc3)co2)cc1 [Mubritinib] (max concentration tested 1000 nM)

>  <percent inhibition of viability>
4.91%

$$$$
>  <COMPOUND>
O=C(c1ccc(F)c(F)c1Nc1ccc(I)cc1F)N1CC(O)([C@@H]2CCCCN2)C1 [Cobimetinib] (max concentration tested 1000 nM)

>  <percent inhibition of viability>
-17.7%

$$$$
>  <COMPOUND>
O=C(O)c1ccc(O)c2ncccc12 [IOX-1] (max concentration tested 100000 nM)

>  <percent inhibition of viability>
5.81%

$$$$
>  <COMPOUND>
Cc1cnc(NC(=O)Nc2cc(Br)c(C)cc2OC[C@@H]2CNCCO2)cn1 [Rabusertib] (max concentration tested 1000 nM)

>  <percent inhibition of viability>
2.12%

$$$$
>  <COMPOUND>
COc1cc(O)c2c(c1)/C=C/C[C@H](O)[C@H](O)C(=O)/C=C\C[C@H](C)OC2=O [(5Z)-7-Oxozeaenol] (max concentration tested 10000 nM)

>  <percent inhibition of viability>
-7.72%

$$$$

Tell me its percent inhibition of viability given O=C(O)CC1CC(c2ccccc2)=NO1 (stereo not given) [VGX-1027] (max concentration tested 10000 nM) as the entry.
-26.7%

Tell me its percent inhibition of viability given COCC1(CO)C(=O)C2CCN1CC2 (stereo not given) [APR-246] (max concentration tested 10000 nM) as the entry.
6.66%

Tell me its percent inhibition of viability given COc1cc2c(cc1O)CC[C@@H]1[C@@H]2CC[C@]2(C)[C@@H](O)CC[C@@H]12 [2-methoxyestradiol] (max concentration tested 10000 nM) as the entry.
5.08%

Tell me its percent inhibition of viability given O=C(Nc1ccc2[nH]nc(-c3ccncc3)c2c1)[C@@H]1CCN(CC(=O)N2CCN(c3ccc(-c4ncccn4)cc3)CC2)C1 (max concentration tested 10000 nM) as the entry.
4.31%

Tell me its percent inhibition of viability given CN(c1ncccc1CNc1nc(Nc2ccc3c(c2)CC(=O)N3)ncc1C(F)(F)F)S(C)(=O)=O (max concentration tested 10000 nM) as the entry.
-2.6%

Tell me its percent inhibition of viability given CC(=O)c1c(C)c2cnc(Nc3ccc(N4CCNCC4)cn3)nc2n(C2CCCC2)c1=O [Palbociclib] (max concentration tested 10000 nM) as the entry.
15.6%

Tell me its percent inhibition of viability given O=C(O)c1ccc(Nc2ncc3c(n2)-c2ccc(Cl)cc2C(c2c(F)cccc2F)=NC3)cc1 [MLN-8054] (max concentration tested 10000 nM) as the entry.
0.61%

Tell me its percent inhibition of viability given OC[C@H]1O[C@@H](n2cnc3c2N=CNC[C@H]3O)C[C@@H]1O [Pentostatin] (max concentration tested 10000 nM) as the entry.
3.89%

Tell me its percent inhibition of viability given CS(=O)(=O)CCNCc1ccc(-c2ccc3ncnc(Nc4ccc(OCc5cccc(F)c5)c(Cl)c4)c3c2)o1 [Lapatinib] (max concentration tested 1000 nM) as the entry.
-17%

Tell me its percent inhibition of viability given COc1cc2ncnc(Nc3ccc(F)c(Cl)c3)c2cc1OCCCN1CCOCC1 [Gefitinib] (max concentration tested 10000 nM) as the entry.
34.7%

Tell me its percent inhibition of viability given O=C(Nc1ccncc1)C(=O)c1cn(Cc2ccc(Cl)cc2)c2ccccc12 [Indibulin] (max concentration tested 10000 nM) as the entry.
63.2%

Tell me its percent inhibition of viability given C#Cc1cccc(Nc2ncnc3cc4c(cc23)OCCOCCOCCO4)c1 [Icotinib] (max concentration tested 10000 nM) as the entry.
4.17%

* * *

Each entry below lists one item and its recorded percent inhibition of viability value.
System: DERL-7 (IL-2 2.5 ng/mL)
METHOD: percent inhibition of viability; higher = more inhibition
CONDITION SUMMARY: 72 h; 1 nM
Give me the value, and tack the unit on after it.

Worked set:
>  <COMPOUND>
CN(c1ccccc1CNc1nc(Nc2ccc3c(c2)CC(=O)N3)ncc1C(F)(F)F)S(C)(=O)=O (max concentration tested 10000 nM)

>  <TEST RESULT>
-11.5%

$$$$
>  <COMPOUND>
CCn1c(-c2nonc2N)nc2c(C#CC(C)(C)O)ncc(OC[C@H]3CCCNC3)c21 (max concentration tested 10000 nM)

>  <TEST RESULT>
-2.25%

$$$$

# context switch: different compound, same percent inhibition of viability
Tell me its percent inhibition of viability given CC(=O)NCC(=O)N1[C@@H]2CC[C@H]1c1ccc(Nc3ncc(C(F)(F)F)c(NC4CCC4)n3)cc12 (max concentration tested 10000 nM) as the entry.
-3.49%

* * *

System: YT (IL-2 2.5 ng/mL)
METHOD: percent inhibition of viability; higher = more inhibition
CONDITION SUMMARY: 72 h; 10000 nM
Each entry below lists one item and its recorded percent inhibition of viability value.
// units = %; emit number, no label

Worked set:
>  <COMPOUND>
NC(=O)c1ccc(I)c([N+](=O)[O-])c1 [Iniparib] (max concentration tested 10000 nM)

>  <READOUT UNIT>
%

>  <TEST RESULT>
5.3

$$$$
>  <COMPOUND>
CNC(=O)c1ccc(N2C(=S)N(c3ccc(C#N)c(C(F)(F)F)c3)C(=O)C2(C)C)cc1F [Enzalutamide] (max concentration tested 10000 nM)

>  <READOUT UNIT>
%

>  <TEST RESULT>
3.56

$$$$
>  <COMPOUND>
CCN(CC)C(=S)SSC(=S)N(CC)CC [Disulfiram] (max concentration tested 100000 nM)

>  <READOUT UNIT>
%

>  <TEST RESULT>
7.11

$$$$
>  <COMPOUND>
COc1cc2ncnc(Nc3ccc(F)c(Cl)c3)c2cc1OCCCN1CCOCC1 [Gefitinib] (max concentration tested 10000 nM)

>  <READOUT UNIT>
%

>  <TEST RESULT>
57.6

$$$$
>  <COMPOUND>
CN(c1ccccc1CNc1nc(Nc2ccc3c(c2)CC(=O)N3)ncc1C(F)(F)F)S(C)(=O)=O (max concentration tested 10000 nM)

>  <READOUT UNIT>
%

>  <TEST RESULT>
109

$$$$

# context switch: different compound, same percent inhibition of viability
Tell me its percent inhibition of viability given CN1CC[C@H](c2c(O)cc(O)c3c(=O)cc(-c4ccccc4Cl)oc23)[C@H](O)C1 [Alvocidib] (max concentration tested 10000 nM) as the entry.
104
